z-score values for the compounds below.
ASSAY_TEXT: osmotic lysis modulators in infected erythrocytes, primary screen, PSAC antagonist project, cell-based, P. falciparum Indochina, OD700, 3 h (AID 1156)
RUN_PARAMETERS: higher = more signal, called active from +8 up or from −8 down
Returns: the value as a bare number; no unit string appended.

Examples from the recorded data:
COMPOUND: CC(C)CON=C1C[C@@H](O)[C@@H](O)[C@@H]2[C@@H]3C(=O)N(Cc4ccc5c(c4)OCO5)C(=O)[C@@H]3CC[C@@H]12
z-score: -0.0127
--
COMPOUND: CC(CCN1CCCCc2nc(C)c(C)cc21)=NO[C@@H](C)c1cc(-c2c(C)cc(C)cc2C)no1
z-score: 1.54
--
COMPOUND: CCOC(=O)[C@H](CC(C)C)NC(=O)CCC1CC(OC(=O)NCCc2ccc(F)cc2)CC2(CCCC(COC(=O)NCCOC)O2)O1 (some centres undefined)
z-score: 0.0768

// next entry
Input: Read the entry COC(=O)[C@H](C)NC(=O)CCC1CC(OC(=O)NCc2cccc3ccccc23)CC2(CCCC(COC(=O)NCc3ccccc3)O2)O1 (some centres undefined) and write its reported z-score.
Output: 0.0409
